target: VprBP/DCAF1 (Vpr binding protein) (Homo sapiens, UniProt Q9Y4B6); experiment: Western blot of H2AT120p (VprBP substrate mark) in G361 and MeWo melanoma cells treated […] h with […] B32B3
Sequence (Q9Y4B6 whole entry): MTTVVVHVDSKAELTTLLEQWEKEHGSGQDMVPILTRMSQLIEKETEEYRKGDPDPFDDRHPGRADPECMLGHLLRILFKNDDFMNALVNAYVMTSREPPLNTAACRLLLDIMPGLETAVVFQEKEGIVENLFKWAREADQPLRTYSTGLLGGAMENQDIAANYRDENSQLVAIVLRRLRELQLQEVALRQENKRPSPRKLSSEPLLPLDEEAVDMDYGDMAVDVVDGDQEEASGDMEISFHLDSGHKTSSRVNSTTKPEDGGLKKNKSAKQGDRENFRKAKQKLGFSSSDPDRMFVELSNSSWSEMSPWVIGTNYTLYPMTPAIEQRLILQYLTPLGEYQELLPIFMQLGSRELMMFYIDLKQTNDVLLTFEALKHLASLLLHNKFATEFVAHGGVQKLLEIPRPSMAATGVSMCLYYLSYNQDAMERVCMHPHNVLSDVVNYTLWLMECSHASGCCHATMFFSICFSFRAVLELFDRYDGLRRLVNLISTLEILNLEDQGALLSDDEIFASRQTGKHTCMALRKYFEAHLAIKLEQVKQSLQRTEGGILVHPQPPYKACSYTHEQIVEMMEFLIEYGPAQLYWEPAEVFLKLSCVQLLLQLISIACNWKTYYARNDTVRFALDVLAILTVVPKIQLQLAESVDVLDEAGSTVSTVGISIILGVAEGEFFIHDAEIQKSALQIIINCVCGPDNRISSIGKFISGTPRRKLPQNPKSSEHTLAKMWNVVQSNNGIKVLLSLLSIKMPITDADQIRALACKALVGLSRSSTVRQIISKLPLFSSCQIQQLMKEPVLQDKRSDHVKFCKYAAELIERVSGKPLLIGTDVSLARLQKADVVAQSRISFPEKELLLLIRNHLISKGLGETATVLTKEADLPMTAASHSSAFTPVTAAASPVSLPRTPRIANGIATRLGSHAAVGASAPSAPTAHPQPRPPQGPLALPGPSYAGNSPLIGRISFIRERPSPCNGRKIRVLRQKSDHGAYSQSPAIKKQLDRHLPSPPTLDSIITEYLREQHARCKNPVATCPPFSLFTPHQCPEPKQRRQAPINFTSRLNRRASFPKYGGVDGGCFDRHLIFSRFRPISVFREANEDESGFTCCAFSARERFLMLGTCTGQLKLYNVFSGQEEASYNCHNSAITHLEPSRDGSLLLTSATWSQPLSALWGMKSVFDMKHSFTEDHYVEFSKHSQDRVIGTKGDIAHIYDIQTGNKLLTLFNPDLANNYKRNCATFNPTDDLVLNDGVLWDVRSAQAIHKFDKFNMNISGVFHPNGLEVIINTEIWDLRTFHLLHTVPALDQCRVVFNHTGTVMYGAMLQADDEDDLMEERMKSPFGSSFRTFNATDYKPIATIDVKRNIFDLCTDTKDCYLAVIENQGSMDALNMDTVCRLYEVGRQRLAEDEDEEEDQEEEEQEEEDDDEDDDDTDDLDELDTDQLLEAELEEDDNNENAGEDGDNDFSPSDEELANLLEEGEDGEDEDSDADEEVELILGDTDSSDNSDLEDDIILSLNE
measurement-type: IC50 (nM)
Give bare numbers, in nM.

Input: Suppose we examine the molecule C(=N\Nc1ncnc2sc3c(c12)CCCC3)/c1c[nH]c2ccccc12 ; what IC50 value has been reported?
Output: 100
